experimental_protocol: Stability of lactone form in human plasma
Type: in vitro ADME
run_parameters: human, human plasma; read-out: half-life time of the drug with lactone intact
Experimental: CPT or SF6A lactone was added to human plasma (1 μg/ml) and an incubation and lactone determination were made as described in Example 15. The lactone amount at each time-point was detected after removing the carboxylate form, and subsequently was calculated as percent of the initial lactone amount added. […] The pattern of quantitation of the lactones was similar in all three experiments.
measured_metric: half-life (min)
Write the answer as a number in min, unit excluded.

Please indicate half-life recorded for CC[C@@]1(O)C(=O)OCc2c1cc1n(c2=O)Cc2cc3ccccc3nc2-1 [CPT, 20(S)-camptothecin] 30

* * *

experimental_protocol: Closed lactone form in human plasma after oral administration
run_parameters: after oral administration (FIGS. 2, 4, 5, 7, 8)
measured_metric: % present as closed lactone form in human blood/plasma (%)
Supply the numeric figure in %, leaving out any unit text.

As a guide, the following entries are already answered.
compound	unit_abbrev	reported_result
CCC(=O)O[C@]1(CC)C(=O)OCc2c1cc1n(c2=O)Cc2cc3c([N+](=O)[O-])cccc3nc2-1 [Prodrug 11, 9-Nitrocamptothecin-20-O-propionate]	%	68.7
CCC(=O)O[C@]1(CC)C(=O)OCc2c1cc1n(c2=O)Cc2cc3ccccc3nc2-1 [Prodrug 2, Camptothecin 20-O-propionate]	%	2.8

Here's the next entry for you.
Give the value of % present as closed lactone form in human blood/plasma reported for the following: CC[C@@]1(O)C(=O)OCc2c1cc1n(c2=O)Cc2cc3ccccc3nc2-1 [CPT, 20(S)-camptothecin] 0.4
